// data source = paper PMC12881670

- ASSAYED_TARGET: Mm_Fpr2 (Mus musculus)
- Construct: expressed in transfected cells
- Sequence (O88536 whole entry): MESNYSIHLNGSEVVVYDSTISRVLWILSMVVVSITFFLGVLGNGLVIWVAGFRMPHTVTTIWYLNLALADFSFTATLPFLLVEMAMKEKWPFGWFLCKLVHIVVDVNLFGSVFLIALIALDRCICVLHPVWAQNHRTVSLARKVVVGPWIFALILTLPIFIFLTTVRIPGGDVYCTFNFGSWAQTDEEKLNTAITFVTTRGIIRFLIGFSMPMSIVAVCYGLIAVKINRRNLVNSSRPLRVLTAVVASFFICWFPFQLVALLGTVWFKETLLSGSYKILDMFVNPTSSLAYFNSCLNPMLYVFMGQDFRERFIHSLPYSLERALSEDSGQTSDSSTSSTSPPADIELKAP
- EXPERIMENTAL_DETAILS: BRET receptor-RLuc8 interaction with Arrestin 3-YFP
- Assay type: cell-based
- Method: BRET1 assays to measure FPR interaction with Venus-mGsi and Arrestin 3-yellow fluorescent protein (YFP) were performed as previously described.[31]^,[32] […] Coelenterazine h was added to each well to a final concentration of 5 μM for 5 minutes before the addition of each compound, and the plate was incubated for a further 10 minutes at 37 °C before being read on a ClarioStar Plus, with luminescence measured at 480/20 nm (donor) and 530/20 (acceptor). […]
Where a SMILES comes first, the peptide text is derived from it. The star is where a group is joined. For = O=C*
Catalogue of Emax readings, one per entry.
VALUE_KIND: Emax (%)

{"COMPOUND": "COc1cc(F)c([C@@H]2CNC(=O)[C@H]2NC(=O)Nc2ccccc2)c(F)c1 [BMS-986235]", "NUMERIC_READOUT": 100}
{"COMPOUND": "CSCC[C@H](NC(=O)[C@@H](NC(=O)[C@H](CCSC)NC(=O)[C@H](Cc1ccc(O)cc1)NC(=O)[C@H](CCCCN)NC(=O)[C@@H](N)Cc1c[nH]c2ccccc12)C(C)C)C(N)=O [WKYMVM]", "NUMERIC_READOUT": 94.3}
{"COMPOUND": "CSCC[C@H](NC=O)C(=O)N[C@@H](CC(C)C)C(=O)N[C@@H](Cc1ccccc1)C(=O)N[C@@H](CCCCN)C(=O)O [fMLFK, fMet-Leu-Phe-Lys] (For-MLFK-OH)", "NUMERIC_READOUT": 72.5}
{"COMPOUND": "CC[C@H](C)[C@H](NC(=O)[C@H](CC(C)C)NC(=O)[C@H](CCCCN)NC(=O)[C@H](CCSC)NC(=O)[C@H](CC(C)C)NC(=O)[C@@H]1CCCN1C(=O)[C@H](CC(N)=O)NC(=O)[C@@H](NC(=O)[C@H](CCCCN)NC(=O)[C@H](CCCNC(=N)N)NC(=O)[C@H](CCSC)NC(=O)[C@@H]1CCCN1C(=O)[C@@H](NC(=O)[C@H](CCSC)NC=O)[C@@H](C)O)[C@@H](C)CC)C(=O)N[C@@H](CC(N)=O)C(=O)O [MCT-2, Formyl-MTPMRKINPLMKLIN] (For-MTPMRKINPLMKLIN-OH)", "NUMERIC_READOUT": 12.1}
